Measured target: T1, human LILRB2 expressed on cells (293T-LILRB2, CHO-K1-LILRB2) (human, UniProt Q8N423 22-597)
T1 construct: whole, on cells; the cell line is named under assay; also called HEK293T-LILRB2
T1 sequence (Q8N423 22-597): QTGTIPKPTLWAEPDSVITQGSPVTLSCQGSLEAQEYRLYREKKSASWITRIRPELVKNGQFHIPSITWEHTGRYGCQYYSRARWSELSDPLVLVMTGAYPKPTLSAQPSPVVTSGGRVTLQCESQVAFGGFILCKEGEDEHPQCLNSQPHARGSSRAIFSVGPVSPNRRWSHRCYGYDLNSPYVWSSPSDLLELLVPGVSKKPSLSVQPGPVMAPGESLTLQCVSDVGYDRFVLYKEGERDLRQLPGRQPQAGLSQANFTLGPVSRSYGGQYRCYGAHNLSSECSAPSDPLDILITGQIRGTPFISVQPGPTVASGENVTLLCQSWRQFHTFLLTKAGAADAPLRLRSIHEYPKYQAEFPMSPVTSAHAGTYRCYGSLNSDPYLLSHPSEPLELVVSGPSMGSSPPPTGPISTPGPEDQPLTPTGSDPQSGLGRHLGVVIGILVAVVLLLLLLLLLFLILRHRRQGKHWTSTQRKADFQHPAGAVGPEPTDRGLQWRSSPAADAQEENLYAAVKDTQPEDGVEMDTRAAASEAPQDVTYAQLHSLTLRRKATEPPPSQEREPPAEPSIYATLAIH
Procedure summary: flow cytometry, blockade of His-tagged HLA-G tetramer binding to 293T-LILRB2 cells; fit table under the graph
Experimental: Serial diluted humanized LILRB2 antibodies were then added to the mixture and incubated at room temperature for another 45 minutes. The binding of HLA-G/LILRB2 was detected afterwards using a secondary PE-labeled anti-His tag antibody via flow cytometry.
Quantity: Span

- Antibody h#2B1 (antibody, V domains shown, Humanized variant of 11B12) VH: EVQLVESGGGLVQPGGSLRLSCAVSGYSITSGYYWNWIRQAPGKGLEWVAYISYDGNNNYNPSLKNRFTISRDASKNTVYLQMNSLRAEDTAVYYCAREESTMITTAWFAYWGQGTLVTVSS VL: DIQMTQSPSSLSASVGDRVTITCRASENIYSNLAWYQQKPGKAPKLLIYGATNLASGVPSRFSGSGSGTDYTLTISSLQPEDFATYYCQHFWDTPYTFGQGTKVEIK: 8850 RFU
- Antibody h#2D1 (antibody, V domains shown, Humanized variant of 11B12) VH: EVQLVESGGGLVQPGGSLRLSCAVSGYSITSGYYWNWVRQAPGKGLEWVAYISYDGNNNYNPSLKNRFTISRDTSKNTVYLQMNSLRAEDTAVYYCVREESTMITTAWFAYWGQGTLVTVSS VL: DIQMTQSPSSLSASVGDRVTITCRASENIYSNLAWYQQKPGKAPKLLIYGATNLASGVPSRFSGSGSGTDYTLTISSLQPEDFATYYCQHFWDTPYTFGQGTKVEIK: 6830 RFU
- Antibody 2E1_GF1 (antibody, V domains shown) VH: EVQLVESGGGLVQPGGSLRLSCAVSGYSITSGYYWNWIRQAPGKGLEWVAYISYDGNNNYNPSLKNRFTISRDTSKNTFYLQMNSLRAEDTAVYYCAREESTMITTAWFAYWGQGTLVTVSS VL: DIQMTQSPSSLSASVGDRVTITCRASEVIYSNLAWYQQKPGKAPKLLIYGATNLASGVPSRFSGSGSGTDYTLTISSLQPEDFATYYCQHFWDTPYTFGQGTKVEIK: 6980 RFU
- Antibody 2E1_GH6 (antibody, V domains shown) VH: EVQLVESGGGLVQPGGSLRLSCAVSGYSITSGYHWNWIRQAPGKGLEWVAYISYDGNNNYNPSLKNRFTISRDTSKNTFYLQMNSLRAEDTAVYYCAREESTMITTAWFAYWGQGTLVTVSS VL: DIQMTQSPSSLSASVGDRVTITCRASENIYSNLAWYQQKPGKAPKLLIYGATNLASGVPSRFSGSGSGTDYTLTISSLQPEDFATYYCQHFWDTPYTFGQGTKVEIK: 5760 RFU
- Antibody h#2C1 (antibody, V domains shown, Humanized variant of 11B12) VH: EVQLVESGGGLVQPGGSLRLSCAVSGYSITSGYYWNWVRQAPGKGLEWVAYISYDGNNNYNPSLKNRFTISRDTSKNTFYLQMNSLRAEDTAVYYCAREESTMITTAWFAYWGQGTLVTVSS VL: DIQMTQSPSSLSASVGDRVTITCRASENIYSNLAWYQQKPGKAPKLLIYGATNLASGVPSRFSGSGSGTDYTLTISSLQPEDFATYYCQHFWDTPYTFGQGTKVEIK: 6960 RFU
